Value source: PubChem BioAssay (NCI)

- Test system: A549 NSCLC
- Protocol summary: NCI tumour cell line growth inhibition, 48 h
The reader will find reported TGI values listed item by item below.
Report the value in µM with no unit label.

Reference set, count: 3
Cc1ncc([N+](=O)[O-])n1CCOc1ccc(C(=O)/C=C/c2ccc(C(F)(F)F)cc2)cc1 | 8.5
OCCN1CCCN(CCCN2c3ccccc3Sc3ccc(C(F)(F)F)cc32)CC1 | 15.6
C#CCN(CCCOc1ccc(Cl)cc1Cl)CCCSC(=O)CCCCCN1/C(=C\C=C2/CCCC(/C=C/C3=[N+](CCCCCC(=O)[O-])c4ccccc4C3(C)C)=C2Cl)C(C)(C)c2ccccc21 | 13.2

Entry under test: CCCC/C=C1/CCC(CN(C)C)C1=O (centres undefined) . Its TGI was 16.5

====

The reader will find reported TGI values listed item by item below.
- System: IGROV1 ovarian
- Protocol summary: NCI tumour cell line growth inhibition, 48 h

Reference set, count: 2
CC(C)(C)OC(=O)N1CCC2(CC1)C(=O)NCN2c1ccccc1 | > 100 µM
C=C1CCC2C(C)(CO)C(O)CCC2(C)C1C/C=C1\C(=O)OCC1O (stereo unspecified) | 57.4 µM

Entry under test: Cn1c(COC(=O)NC2CCCCC2)c(COC(=O)NC2CCCCC2)c2ccc3ccccc3c21 . Its TGI was > 100 µM

Entry under test: O=C(O)C1C2OC(C(Br)C2Br)C1C(=O)O (stereo unspecified) . Its TGI was > 100 µM

Entry under test: Nc1c(-c2ccccc2)c2ccc([N+](=O)[O-])cc2c(=O)n1-c1cccc(C(=O)O)c1 . Its TGI was > 100 µM

Entry under test: CCCCCCCCCCCCCCCC[N+](C)(C)CCl . Its TGI was 1.31 µM

====

The reader will find reported TGI values listed item by item below.
- Test system: TK-10 renal
- Protocol summary: NCI tumour cell line growth inhibition, 48 h
Where a SMILES comes first, the peptide text is derived from it. The star is where a group is joined. Fmoc = O=C(OCC1c2ccccc2-c2ccccc21)*; OBn = c1ccc(CO*)cc1; tBu = CC(C)(C)*

O=S1(=O)CS(=O)(=O)OCCCCCO1 | > 100 µM
CC(OC(C)(C)C)C(NC(=O)OCC1c2ccccc2-c2ccccc21)C(=O)NC(Cc1ccccc1)C(=O)OCc1ccccc1 (centres undefined) (Fmoc-Thr(tBu)-Phe-OBn; configuration not given here) | > 100 µM
Cc1nc2sc(C(=O)Nc3cccc(Cl)c3)c(N)c2cc1C(O)c1ccccc1 (centres undefined) | 33.6 µM

Entry under test: COc1cc2c(cc1OCCN1CCN(CCOc3cc4c(cc3OC)C(=O)N3CCC[C@H]3C=N4)CC1)N=C[C@@H]1CCCN1C2=O . Its TGI was 87.8 µM

Entry under test: CC(C)(C)C(=O)C(N)C(=O)C(C)(C)C . Its TGI was > 100 µM

Entry under test: C=C1CCC2C(C)(CO)C(O)CCC2(C)C1C/C=C1\C(=O)OCC1O (centres undefined) . Its TGI was > 100 µM

Entry under test: N=C(N)c1ccc(N=Nc2c(O)c(C(=O)Nc3ccccc3)cc3ccccc23)cc1 . Its TGI was > 68 µM

Entry under test: COc1cc(C2C3=C(NC(=O)C2C#N)c2ccc4ccccc4c2OCC3)cc(OC)c1OC (centres undefined) . Its TGI was > 100 µM

Entry under test: NC(=O)C1C(=O)Oc2cccnc21 (centres undefined) . Its TGI was > 100 µM

====

The reader will find reported TGI values listed item by item below.
- Test system: MDA-N
- Protocol summary: NCI tumour cell line growth inhibition, 48 h

Reference set, count: 6
CN(CC(=O)O)c1ncc2c(n1)-c1ccccc1CC2 | > 100 µM
COc1cc(OC)c(OC)cc1/C=C\c1ccnc2ccccc12 | 0.791 µM
CC(C)(C)c1cc(C(C)(C)C)c2sc(=O)oc2c1O | 29.9 µM
CC1CC[C@@]2(OC1)OC1C[C@H]3[C@@H]4CC=C5C[C@@H](OC6OC(CO)C(OC7OC(CO)C(O)C(O)C7O)C(O)C6OC6OC(C)C(O)C(O)C6O)CC[C@]5(C)[C@H]4CC[C@]3(C)C1[C@@H]2C (stereo partly drawn) | 2.34 µM
Cc1cc(C)nc(NS(=O)(=O)c2ccc(NC(=O)c3ccc4nc5ccccc5c(Nc5ccc(S(=O)(=O)N=C(N)N)cc5)c4c3)cc2)n1 | > 100 µM
COc1cc(/C=C2\C(=O)N(c3ccc(Cl)cc3)C(c3ccccc3)S2(=O)=O)cc(OC)c1OC (stereo not drawn) | 20.1 µM

Form: item CCCCCCCCCCCCCCCC[N+](C)(C)CCl ; test system MDA-N; TGI: 15.4 µM

Form: item CC1=NN(C(=O)CC(=O)Nc2cccc(C)c2)C(=O)C1N=Nc1ccc(C(=O)O)cc1 (stereo not drawn) ; test system MDA-N; TGI: > 100 µM

Form: item CC(=O)O[C@H]1C(=O)[C@@]2(C)C([C@H](OC(=O)c3ccccc3)[C@]3(O)C[C@H](OC(=O)[C@H](O)[C@@H](NC(=O)c4ccc(Cl)cc4)c4ccccc4)C(C)=C1C3(C)C)C1(OC(C)=O)CO[C@@H]1C[C@@H]2O (stereo partly drawn) ; test system MDA-N; TGI: 0.0195 µM

====

- System: DU-145 prostate
- Protocol summary: NCI tumour cell line growth inhibition, 48 h
The reader will find reported TGI values listed item by item below.

Reference set, count: 3
Fc1nc(Sc2ncnc3nc[nH]c23)nc(-c2c3ccccc3c3sc4ccccc4n23)n1 | > 100 µM
Cc1cn([C@H]2CN(O)C[C@@H](CO)O2)c(=O)[nH]c1=O | > 100 µM
C[N+](C)([O-])C12CC3CC(CC(C3)C1)C2 | > 100 µM

Entry under test: COc1cc(OC)c(OC)cc1/C=C\c1ccnc2ccccc12 . Its TGI was > 100 µM

Entry under test: C#CCN(CCCOc1ccc(Cl)cc1Cl)CCCSC(=O)CCCCCN1/C(=C\C=C2/CCCC(/C=C/C3=[N+](CCCCCC(=O)[O-])c4ccccc4C3(C)C)=C2Cl)C(C)(C)c2ccccc21 . Its TGI was 10.9 µM

Entry under test: O=C(Nc1ccc(-n2cc(-c3ccncc3)c(-c3ccc(Cl)c(O)c3)n2)cc1)c1ccc(Cl)c(Cl)c1 . Its TGI was > 100 µM

Entry under test: Nc1ncnc2c1ncn2CCCNO . Its TGI was > 100 µM

Entry under test: COc1ccc(/C=C2\N=C3N(Cc4ccccc4)C=C(N)N3C2=O)cc1 . Its TGI was > 100 µM

Entry under test: CC(=O)O[C@H]1C(=O)[C@@]2(C)C([C@H](OC(=O)c3ccccc3)[C@]3(O)C[C@H](OC(=O)[C@H](O)[C@@H](NC(=O)c4ccc(Cl)cc4)c4ccccc4)C(C)=C1C3(C)C)C1(OC(C)=O)CO[C@@H]1C[C@@H]2O (stereo not given in full) . Its TGI was 0.452 µM

Entry under test: COc1ccc(-c2nc3sccn3c2/C=C/C(=O)c2cc(OC)c(OC)c(OC)c2)cc1 . Its TGI was 12.9 µM

====

- System: M14 melanoma
- Protocol summary: NCI tumour cell line growth inhibition, 48 h
Where a SMILES comes first, the peptide text is derived from it. The star is where a group is joined. Fmoc = O=C(OCC1c2ccccc2-c2ccccc21)*; OBn = c1ccc(CO*)cc1; tBu = CC(C)(C)*
Assay readout: TGI

CC(OC(C)(C)C)C(NC(=O)OCC1c2ccccc2-c2ccccc21)C(=O)NC(Cc1ccccc1)C(=O)OCc1ccccc1 (configuration not stated) (Fmoc-Thr(tBu)-Phe-OBn; configuration not given here) | > 100 µM

Entry under test: CCOC(=O)/C(=C/c1cn(C(C)=O)c2ccccc12)P(=O)(OC)OC . Its TGI was > 100 µM

Entry under test: O=S1(=O)CS(=O)(=O)OCCCCCO1 . Its TGI was > 100 µM

Entry under test: O=C(c1ccccc1)C1C(c2ccccc2[N+](=O)[O-])N1C1CCCCC1 (configuration not stated) . Its TGI was 23.9 µM

Entry under test: c1ccc2[nH]c(-c3cscn3)nc2c1 . Its TGI was > 100 µM

Entry under test: CC(=O)O[C@H]1C(=O)[C@@]2(C)C([C@H](OC(=O)c3ccccc3)[C@]3(O)C[C@H](OC(=O)[C@H](O)[C@@H](NC(=O)c4ccc(Cl)cc4)c4ccccc4)C(C)=C1C3(C)C)C1(OC(C)=O)CO[C@@H]1C[C@@H]2O (some centres not stated) . Its TGI was 0.733 µM

Entry under test: CC(C)OC(=O)c1cc(NC(=S)OC(C)C)ccc1Cl . Its TGI was > 79.6 µM

Entry under test: CCN(CCCl)c1cc(CN(C)C)cc(NC(=O)c2ccc(C(=O)Nc3cccc(N(CCCl)NN)c3)cc2)c1 . Its TGI was 0.294 µM

Entry under test: CCOC(=O)c1c(-c2ccc(Cl)cc2)c(C#N)c(=S)n(C2OC(COC(C)=O)C(OC(C)=O)C(OC(C)=O)C2OC(C)=O)c1C (configuration not stated) . Its TGI was > 100 µM

Entry under test: Cc1c(C)c2c(c(N)c1C#N)C(=O)N(NC(=S)Nc1ccccc1)C2=O . Its TGI was > 100 µM

Entry under test: O=C(CN1CCCC1)Nc1ccc2c(c1)C1Oc3ccccc3CC1CO2 (configuration not stated) . Its TGI was 36.4 µM

Entry under test: Cc1cc(N(CCC#N)CCC#N)ccc1/C=C1N=C(/C=C\c2ccccc2)N(c2ccc(C(=O)O)cc2)C\1=O . Its TGI was > 100 µM

Entry under test: O=C(Nc1c(Cl)cc([N+](=O)[O-])cc1Cl)C(=O)C(C(=O)c1ccncc1)C1OC(=O)c2ccccc21 (configuration not stated) . Its TGI was > 100 µM

Entry under test: NCC[PH+](c1ccccc1)c1ccccc1.NCC[PH+](c1ccccc1)c1ccccc1.[Cl-].[Pt+4] . Its TGI was > 100 µM

Entry under test: COc1ccccc1-c1cc(=O)c2cccnc2[nH]1 . Its TGI was > 100 µM

Entry under test: COc1cc2c(cc1OCCN1CCN(CCOc3cc4c(cc3OC)C(=O)N3CCC[C@H]3C=N4)CC1)N=C[C@@H]1CCCN1C2=O . Its TGI was > 83.6 µM

Entry under test: COc1ccc(C2NC(c3ccc(OC)cc3)C(C)C(=O)C2C)cc1 (configuration not stated) . Its TGI was > 100 µM
